- Tested on: orexin-1 (Homo sapiens (Human), UniProt O43613)
- Sequence (O43613 whole entry): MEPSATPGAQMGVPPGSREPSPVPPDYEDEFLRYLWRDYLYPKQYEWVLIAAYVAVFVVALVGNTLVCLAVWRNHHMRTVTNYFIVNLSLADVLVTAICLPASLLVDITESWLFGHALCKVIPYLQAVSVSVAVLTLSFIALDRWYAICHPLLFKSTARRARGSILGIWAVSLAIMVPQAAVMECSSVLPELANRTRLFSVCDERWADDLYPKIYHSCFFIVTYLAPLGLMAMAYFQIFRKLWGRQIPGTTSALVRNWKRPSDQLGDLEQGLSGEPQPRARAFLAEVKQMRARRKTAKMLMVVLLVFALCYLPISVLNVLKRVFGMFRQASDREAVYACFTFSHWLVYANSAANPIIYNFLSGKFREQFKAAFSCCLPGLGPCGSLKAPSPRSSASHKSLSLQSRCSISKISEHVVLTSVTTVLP
- Assay protocol: Intracellular calcium measurement (FLIPR), CHO cells expressing human orexin-1 receptor, 3 nM orexin-A
- Type: cell-based
- Experimental conditions: CHO cells expressing human orexin-1 receptor, FLIPR, 3 nM orexin-A; geometric mean if determined several times; read-out: IC50 OX1
- Protocol: In Vitro Assay: Intracellular Calcium Measurements: […] Within the Fluorescent Imaging Plate Reader (FLIPR Tetra, Molecular Devices), antagonists are added to the plate in a volume of 10 μL/well, incubated for 120 min and finally 10 μL/well of agonist is added. Fluorescence is measured for each well at 1 second intervals, and the height of each fluorescence peak is compared to the height of the fluorescence peak induced by 3 nM orexin-A with vehicle in place of antagonist. […]
Quantity: IC50 (µM)
Respond with the bare value in µM.

- Cc1cc(C)cc(-c2nnc([C@@H]3CCCN3C(=O)c3cc(C)ccc3-n3nccn3)o2)c1: 0.535
- COc1cc(Cl)cc(-c2nc([C@@H]3CCCN3C(=O)c3cc(C)ccc3-n3nccn3)no2)n1: 0.054
- COc1cc(C(=O)N2CCC[C@H]2c2nnc(-c3cccc(Cl)c3C)o2)c(-n2nccn2)cc1Cl: 0.082

Please look at the following compound next.
Any idea what its IC50 is? The compound is COc1c(F)cccc1-c1nc([C@@H]2CCCN2C(=O)c2cccc(Cl)c2-n2nccn2)no1
0.155

----------
- Tested on: human orexin-2 receptor (Homo sapiens (Human), UniProt O43614)
- Sequence (O43614 whole entry): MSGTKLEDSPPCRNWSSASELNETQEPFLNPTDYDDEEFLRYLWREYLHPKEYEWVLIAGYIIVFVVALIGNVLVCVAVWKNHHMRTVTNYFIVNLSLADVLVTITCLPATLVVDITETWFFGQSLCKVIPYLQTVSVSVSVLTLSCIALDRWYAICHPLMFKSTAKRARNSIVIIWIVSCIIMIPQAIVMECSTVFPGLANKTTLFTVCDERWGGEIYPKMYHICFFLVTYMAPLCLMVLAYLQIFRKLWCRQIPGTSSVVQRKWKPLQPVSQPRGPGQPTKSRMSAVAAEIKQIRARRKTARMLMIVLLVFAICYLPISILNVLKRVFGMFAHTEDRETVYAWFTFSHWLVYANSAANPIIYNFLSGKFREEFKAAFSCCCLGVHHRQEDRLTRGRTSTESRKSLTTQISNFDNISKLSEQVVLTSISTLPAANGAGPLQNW
- Assay protocol: Intracellular calcium measurement (FLIPR), CHO cells expressing human orexin-2 receptor, 3 nM orexin-A
- Type: cell-based
- Experimental conditions: CHO cells expressing human orexin-2 receptor, FLIPR, 3 nM orexin-A; geometric mean if determined several times; read-out: IC50 OX2
Quantity: pIC50
For clarity, pIC50 is expressed as the negative log10 of concentration in mol/L.

* COc1c(Cl)cccc1-c1nnc([C@@H]2CCCN2C(=O)c2cc(C)c(C)cc2-n2nccn2)[nH]1 | 8.52
* CCc1ncccc1-c1noc([C@@H]2CCCN2C(=O)c2cc(C)ccc2-n2nccn2)n1 | 7.01
* Cc1cccc(-c2nnc([C@@H]3CCCN3C(=O)c3cc(C)ccc3-n3nccn3)o2)c1 | 6.44
* COc1cc(OC)cc(-c2noc([C@@H]3CCCN3C(=O)c3cc(C)ccc3-n3nccn3)n2)c1 | 7.05
* CCc1ccccc1-c1nc([C@@H]2CCCN2C(=O)c2cc(OC)c(C)cc2-n2nccn2)no1 | 8.52

Recorded pIC50 for Cc1ccc(C(=O)N2CCC[C@H]2c2nc(-c3ccccc3OC(F)(F)F)no2)c(-n2nccn2)c1C , please?
6.72

Input CCOc1ncccc1-c1nc([C@@H]2CCCN2C(=O)c2ccc(C)cc2-n2nccn2)no1
7.96

Record: CCOc1c(F)cccc1-c1noc([C@@H]2CCCN2C(=O)c2cc(OC)c(C)cc2-n2nccn2)n1
8.30

----------
- Tested on: orexin-1 (Homo sapiens (Human))
- Assay protocol: Intracellular calcium measurement (FLIPR), CHO cells expressing human orexin-1 receptor, 3 nM orexin-A
- Assay type: cell-based
- Experimental conditions: CHO cells expressing human orexin-1 receptor, FLIPR, 3 nM orexin-A; geometric mean if determined several times; read-out: IC50 OX1
Items are presented alongside their recorded IC50.
Response body: numeric value in nM, unit text excluded.

Guide cases for IC50, answers given:
• Cc1ccc(C(=O)N2CCC[C@H]2c2cnc(-c3ccccc3)[nH]2)c(-n2nccn2)c1 = 650
• COc1cc(C(=O)N2CCC[C@H]2c2nc(-c3ccccc3OC(F)(F)F)no2)c(-n2nccn2)cc1OC = 126

May I ask what IC50 has been recorded for COc1cc(C(=O)N2CCC[C@H]2c2nc(-c3cccc(F)c3OC)no2)c(-n2nccn2)cc1C ?
27

// repeat for COc1cc(C(=O)N2CCC[C@H]2c2noc(-c3cccc(C)c3C)n2)c(-n2nccn2)cc1C and report
25

----------
- System: Wistar rats
- Assay protocol: Sleep effects: EEG, EMG and behavioural indices of alertness by radiotelemetry
- Format: in vivo
- Experimental conditions: 100 mg/kg po; effects analyzed over 12 hours; compared to vehicle controls
- Method: Sleep Effects: EEG, EMG and Behavioural Indices of Alertness Recorded by Radiotelemetry In Vivo in Wistar Rats. Electroencephalography (EEG) and Electromyography (EMG) signals were measured by telemetry using TL11M2-F20-EET miniature radiotelemetric implants (Data Science Int.) with two pairs of differential leads. […]
Overview of reported effect on NREM sleep across a group of compounds:

Answered cases to consult:
- Cc1ccc(C(=O)N2CCC[C@H]2c2nnc(-c3ccccc3OC(F)(F)F)[nH]2)c(-n2nccn2)c1: +24.2%
- COc1cc(C(=O)N2CCC[C@H]2c2nc(-c3ccccc3OC(F)(F)F)no2)c(-n2nccn2)cc1C: +7.3%
- Cc1cc(C(=O)N2CCC[C@H]2c2nc(-c3cccc(Cl)c3C)no2)c(-n2nccn2)cc1C: +11.2%

Looking for the measured effect on NREM sleep of COc1cc(C(=O)N2CCC[C@H]2c2noc(-c3ccccc3OC(F)(F)F)n2)c(-n2nccn2)cc1C , can you help?
+14.3%

----------
- Tested on: orexin-1 (Homo sapiens (Human), UniProt O43613)
- Assay protocol: Intracellular calcium measurement (FLIPR), CHO cells expressing human orexin-1 receptor, 3 nM orexin-A
- Type: cell-based
- Experimental conditions: CHO cells expressing human orexin-1 receptor, FLIPR, 3 nM orexin-A; geometric mean if determined several times; read-out: IC50 OX1
Threshold check on IC50: strictly below 0.3 µM is met; on or above 0.3 µM is not met.

Look over these answered cases.
* COc1ccccc1-c1nnc([C@@H]2CCCN2C(=O)c2ccc(Cl)cc2-n2nccn2)[nH]1 | met
* Cc1c(Cl)cccc1-c1nnc([C@]2(C)CCCN2C(=O)c2cc(Cl)ccc2-n2nccn2)[nH]1 | met
* COc1c(F)cccc1-c1cc([C@@H]2CCCN2C(=O)c2cc(C)ccc2-n2nccn2)on1 | met

# strict comparison: is reported IC50 < 0.3 µM? input = Cc1ccc(C(=O)N2CCC[C@H]2c2nc(-c3ccccc3Cl)no2)c(-n2nccn2)c1
not met

Check Cc1cc(-n2nccn2)c(C(=O)N2CCC[C@H]2c2nc(-c3cccc(Cl)c3C)no2)cc1Cl too.
met

Another molecule to check: O=C(c1cccc(F)c1-n1cccn1)N1CCC[C@H]1c1nc(-c2ccccc2OC(F)(F)F)no1
not met

What do you have for Cc1c(Cl)cccc1-c1nnc([C@]2(C)CCCN2C(=O)c2ccc(Cl)cc2-n2nccn2)[nH]1 ?
met

Can you check COc1c(F)cccc1-c1noc([C@@H]2CCCN2C(=O)c2ccc(C(F)(F)F)cc2-n2nccn2)n1 next?
not met

And for CCOc1c(F)cccc1-c1noc([C@@H]2CCCN2C(=O)c2cc(OC)c(C)cc2-n2nccn2)n1 ?
met

Try this molecule too: CCCOc1ccccc1-c1nnc([C@@H]2CCCN2C(=O)c2cc(C)ccc2-n2nccn2)[nH]1
not met

Now consider O=C(c1cccc(F)c1-n1nccn1)N1CCC[C@H]1c1nc(-c2ccccc2OC(F)(F)F)no1 .
met

Same again, this time with Cc1nc(C(=O)N2CCC[C@H]2c2nnc(-c3ccccc3OC(F)(F)F)[nH]2)c(-c2ccccc2)s1
met

Request: Cc1ccc(-n2nccn2)c(C(=O)N2CCC[C@H]2c2nc(-c3ccnc(Cl)c3)no2)c1
not met

Another: CCOc1ncccc1-c1noc([C@@H]2CCCN2C(=O)c2cc(OC)ccc2-n2nccn2)n1
met

Could you do the same for O=C(c1cc(Cl)ccc1-n1nccn1)N1CCC[C@H]1c1nc(-c2ccccc2OC(F)(F)F)no1 , please?
met

----------
- Tested on: human orexin-2 receptor (Homo sapiens (Human), UniProt O43614)
- Assay protocol: Intracellular calcium measurement (FLIPR), CHO cells expressing human orexin-2 receptor, 3 nM orexin-A
- Assay type: cell-based
- Experimental conditions: CHO cells expressing human orexin-2 receptor, FLIPR, 3 nM orexin-A; geometric mean if determined several times; read-out: IC50 OX2
Label Y when IC50 is strictly below 90 nM; at or above that, label N.

Please check: IC50 for Cc1ccc(-n2nccn2)c(C(=O)N2CCC[C@H]2c2nc(-c3ccccc3CCO)no2)c1 , strictly under 90 nM or not?
Y

Further, for Cc1ccc(-n2cccn2)c(C(=O)N2CCC[C@H]2c2nc(-c3ccccc3OC(F)(F)F)no2)n1 ?
N

Also COc1c(F)cccc1-c1noc([C@@H]2CCCN2C(=O)c2cc(C)cc(C)c2-n2nccn2)n1 , if possible.
Y

Okay, and Cc1ccc(-n2nccn2)c(C(=O)N2CCC[C@H]2c2nnc(-c3ccccc3OC(F)(F)F)s2)c1 ?
N

Consider next the compound Cc1cc(C)cc(-c2nnc([C@@H]3CCCN3C(=O)c3cc(C)ccc3-n3nccn3)o2)c1 in the same way.
N

Next entry: CCOc1ccccc1-c1nnc([C@@H]2CCCN2C(=O)c2cc(C)ccc2-n2nccn2)[nH]1
Y

Item: Cc1ccc(-n2nccn2)c(C(=O)N2CCC[C@H]2c2cc(-c3cccc(C)c3C)no2)c1
Y

Another compound: Cc1c(Cl)cccc1-c1noc([C@@H]2CCCN2C(=O)c2ccc(F)cc2-n2cccn2)n1
N
